# system name: P2Y purinoceptor 1 (Meleagris gallopavo)
# Sequence (P49652 whole entry): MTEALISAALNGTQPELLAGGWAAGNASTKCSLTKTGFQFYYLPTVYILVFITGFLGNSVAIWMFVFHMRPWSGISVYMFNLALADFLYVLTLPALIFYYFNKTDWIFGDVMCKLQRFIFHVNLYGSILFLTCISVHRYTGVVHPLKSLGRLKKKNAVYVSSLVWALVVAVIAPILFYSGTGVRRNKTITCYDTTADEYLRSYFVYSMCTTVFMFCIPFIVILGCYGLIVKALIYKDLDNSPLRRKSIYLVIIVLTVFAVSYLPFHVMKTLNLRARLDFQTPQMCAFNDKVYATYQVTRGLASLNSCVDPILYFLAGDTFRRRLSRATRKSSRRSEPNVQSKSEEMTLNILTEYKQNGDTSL
# experimental protocol: Inhibitory concentration against P2Y1 receptor in turkey erythrocyte membranes
measure name: IC50

Prompt line: Identify the reported IC50 for the following entry. CNc1nc(Cl)nc2c1ncn2CC1CC1(COP(=O)(O)O)COP(=O)(O)O (stereo not given)
Response line: 1.9 µM

Prompt line: Identify the reported IC50 for the following entry. "CNc1nc(Cl)nc2c1ncn2CC(CCOP(=O)(O)O)CCOP(=O)(O)O"
Response line: 2.04 µM

Prompt line: Identify the reported IC50 for the following entry. "CNc1ncnc2c1ncn2CC(COP(=O)(O)O)COP(=O)(O)O"
Response line: 1.09 µM

Prompt line: Identify the reported IC50 for the following entry. "CNc1nc(Cl)nc2c1ncn2C(COP(=O)(O)O)COP(=O)(O)O"
Response line: 4.56 µM

Prompt line: Identify the reported IC50 for the following entry. "CNc1nc(Cl)nc2c1ncn2C[C@@H]1[C@H](COP(=O)(O)O)[C@@H]1COP(=O)(O)O"
Response line: 2.17 µM
